Value source: ChEMBL document CHEMBL3885861

# Organism: Rattus norvegicus
# procedure_details: Open TG-GATES - Regimen: Single
# Format: toxicity, organism-based, Sprague-Dawley
# Design: regimen Single, gender Male, age 6 weeks
# condition_label: in vivo, po, 0 mg/kg, 24 h, tissue Plasma, route gavage, dose level Control

{"compound": "CCCc1cc(=O)[nH]c(=S)[nH]1 [PROPYLTHIOURACIL]", "units": "mg/dL", "Ca": 10.9}
{"compound": "CN1C(=O)CCS(=O)(=O)C1c1ccc(Cl)cc1 (configuration not stated) [CHLORMEZANONE]", "units": "mg/dL", "Ca": 11.5}
{"compound": "O=C(OC[C@H]1O[C@@H](OC(=O)c2cc(O)c(O)c(OC(=O)c3cc(O)c(O)c(O)c3)c2)[C@H](OC(=O)c2cc(O)c(O)c(OC(=O)c3cc(O)c(O)c(O)c3)c2)[C@@H](OC(=O)c2cc(O)c(O)c(OC(=O)c3cc(O)c(O)c(O)c3)c2)[C@@H]1OC(=O)c1cc(O)c(O)c(OC(=O)c2cc(O)c(O)c(O)c2)c1)c1cc(O)c(O)c(OC(=O)c2cc(O)c(O)c(O)c2)c1 [TANNIC ACID]", "units": "mg/dL", "Ca": 10.8}
{"compound": "COC(=O)C1=C(C)NC(C)=C(C(=O)OC)C1c1ccccc1[N+](=O)[O-] [NIFEDIPINE]", "units": "mg/dL", "Ca": 11}
{"compound": "Nc1c2c(nc3ccccc13)CCCC2 [TACRINE]", "units": "mg/dL", "Ca": 10.8}
{"compound": "NC1=NC(=O)C(c2ccccc2)O1 (configuration not stated) [PEMOLINE]", "units": "mg/dL", "Ca": 10.7}
{"compound": "Brc1ccccc1 [BROMOBENZENE]", "units": "mg/dL", "Ca": 10.5}

###

# Species on record: Rattus norvegicus
# procedure_details: Open TG-GATES - Regimen: Single
# Type: toxicity, organism-based, Sprague-Dawley
# Set-up: regimen Single, gender Male, age 6 weeks
# condition_label: in vivo, po, 300 mg/kg, 3 h, tissue Plasma, route gavage, dose level Middle
endpoint: TG (mg/dL)

{"compound": "COC(=O)C1=C(C)NC(C)=C(C(=O)OC)C1c1ccccc1[N+](=O)[O-] [NIFEDIPINE]", "units": "mg/dL", "value_measured": 33.6}
{"compound": "CNC(=C[N+](=O)[O-])NCCSCc1ccc(CN(C)C)o1 [RANITIDINE]", "units": "mg/dL", "value_measured": 48}
{"compound": "Cc1nnc2n1-c1ccc(Cl)cc1C(c1ccccc1Cl)=NC2 [TRIAZOLAM]", "units": "mg/dL", "value_measured": 60.8}
{"compound": "O=C(OC[C@H]1O[C@@H](OC(=O)c2cc(O)c(O)c(OC(=O)c3cc(O)c(O)c(O)c3)c2)[C@H](OC(=O)c2cc(O)c(O)c(OC(=O)c3cc(O)c(O)c(O)c3)c2)[C@@H](OC(=O)c2cc(O)c(O)c(OC(=O)c3cc(O)c(O)c(O)c3)c2)[C@@H]1OC(=O)c1cc(O)c(O)c(OC(=O)c2cc(O)c(O)c(O)c2)c1)c1cc(O)c(O)c(OC(=O)c2cc(O)c(O)c(O)c2)c1 [TANNIC ACID]", "units": "mg/dL", "value_measured": 42.4}
{"compound": "CN/C(=N/CCSCc1nc[nH]c1C)NC#N [CIMETIDINE]", "units": "mg/dL", "value_measured": 57}
